target: GABAA receptor (rat brain cortical membranes, [35S]-TBPS binding); conditions: Table I-6; rat brain cortical membranes, 3 nM [35S]-TBPS, in the presence of 5 mM GABA
quantity_measured: IC50

CC(=O)[C@@H]1CCC[C@H]2[C@@H]3CC[C@@H]4C[C@](C)(O)CC[C@@H]4[C@H]3CC[C@]2(C)C1 [I-BC14b]: 1000 to 10000 nM

// input: 6 compounds below; output: IC50 for each
1. C[C@@]1(O)CC[C@H]2[C@H](CC[C@@H]3[C@@H]2CC[C@]2(C)[C@H](C#N)CCCC[C@@H]32)C1 [I-BA16a]
2. C[C@@]1(O)CC[C@H]2[C@H](CC[C@@H]3[C@@H]2CC[C@]2(C)C[C@H](C(=O)Nc4ccccc4)CCC[C@@H]32)C1 [I-BC11a]
3. C[C@@]1(O)CC[C@H]2[C@H](CC[C@@H]3[C@@H]2CC[C@]2(C)[C@H](CO)CCCC[C@@H]32)C1
4. COC[C@H]1CCCC[C@H]2[C@@H]3CC[C@@H]4C[C@](C)(O)CC[C@@H]4[C@H]3CC[C@]12C
5. C[C@@]1(O)CC[C@H]2[C@H](CC[C@@H]3[C@@H]2CC[C@]2(C)C[C@@H](C(=O)Cn4cc(C#N)cn4)CCC[C@@H]32)C1
6. C[C@@]1(O)CC[C@H]2[C@H](CC[C@@H]3[C@@H]2CC[C@]2(C)C[C@H](C(=O)Cn4cc(C#N)cn4)CCC[C@@H]32)C1 [I-BC16a]

Response:
1: 1000 to 10000 nM; 2: 1000 to 10000 nM; 3: 1000 to 10000 nM; 4: 100 to 1000 nM; 5: 100 to 1000 nM; 6: 100 to 1000 nM

Recorded values, source patent US20220315621A1.
